target.or.test.system: mouse melanocortin-4 receptor (mouse, UniProt P56450 1-332)
Sequence (P56450 whole entry): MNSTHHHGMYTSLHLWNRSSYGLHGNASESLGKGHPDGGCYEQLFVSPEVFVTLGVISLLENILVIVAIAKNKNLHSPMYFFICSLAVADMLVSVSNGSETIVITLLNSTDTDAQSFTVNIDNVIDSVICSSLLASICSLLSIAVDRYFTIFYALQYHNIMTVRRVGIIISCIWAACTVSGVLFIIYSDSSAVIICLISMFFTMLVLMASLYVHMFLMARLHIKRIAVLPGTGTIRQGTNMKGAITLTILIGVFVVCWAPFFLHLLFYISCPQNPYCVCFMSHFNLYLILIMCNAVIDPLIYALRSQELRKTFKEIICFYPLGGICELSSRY
protocol.text: cell-based or functional assay
Bridges are numbered along the chain shown (N, C = ends). Where no end group is shown, it is not given here. [ ]: non-standard residue; d: D form. Nle = CCCC[C@H](N)C(=O)O; Dap = NC[C@H](N)C(=O)O
Kindly supply the reported EC50 (agonist) values for the records listed here.

Q: Would you kindly share the measured EC50 (agonist) for YDHRFFNAF[Dap]Y-NH2 (lactam 2-10; N-terminus assumed; SMILES C[C@@H]1NC(=O)[C@H](CC(N)=O)NC(=O)[C@H](Cc2ccccc2)NC(=O)[C@H](Cc2ccccc2)NC(=O)[C@H](CCCNC(=N)N)NC(=O)[C@H](Cc2c[nH]cn2)NC(=O)[C@@H](NC(=O)[C@@H](N)Cc2ccc(O)cc2)CC(=O)NC[C@@H](C(=O)N[C@@H](Cc2ccc(O)cc2)C(N)=O)NC(=O)[C@H](Cc2ccccc2)NC1=O) [SEQ ID NO:8 (Tyr-c[Asp-His-Arg-Phe-Phe-Asn-Ala-Phe-Dpr]-Tyr)] ?
Result: > 100 µM

Q: Give the measured EC50 (agonist) of Ac-SYS[Nle]EHRF[dF]GKPV-NH2 (SMILES CCCC[C@H](NC(=O)[C@H](CO)NC(=O)[C@H](Cc1ccc(O)cc1)NC(=O)[C@H](CO)NC(C)=O)C(=O)N[C@@H](CCC(=O)O)C(=O)N[C@@H](Cc1c[nH]cn1)C(=O)N[C@@H](CCCNC(=N)N)C(=O)N[C@@H](Cc1ccccc1)C(=O)N[C@H](Cc1ccccc1)C(=O)NCC(=O)N[C@@H](CCCCN)C(=O)N1CCC[C@H]1C(=O)N[C@H](C(N)=O)C(C)C) [SEQ ID NO:18 (Ac-Ser-Tyr-Ser-Nle-Glu-His-Arg-Phe-DPhe-Gly-Lys-Pro-Val)] .
Result: > 100 µM

Q: Look at this binder and give its reported EC50 (agonist). YDHXRXNAFXY (Asp-Dpr side chain lactam bridge; Dpr; DPhe; Bip; C-terminal amide (amide resin)) [SEQ ID NO:41 (Tyr-c[Asp-His-DPhe-Arg-Bip-Asn-Ala-Phe-Dpr]-Tyr)]
Result: 0.0426 µM
